System: Plasmodium berghei
Experiment: Screen against P. berghei liver stage (PbLuc), transformed with Luciferase, at 10uM
Assay type: functional, HepG2
Details: tested at 10 uM
The whole screen tested about 69,000 compounds, of which about 8,600 (12%) showed an effect of 50% or more. For the sample, strong results were picked, then their nearest neighbours and some compounds at random.
# strict inequality: INHIBITION < 20% yields criterion met, everything else yields criterion not met

Confirm or reject: INHIBITION of COCCN1C[C@H]2[C@@H](C1)N(C(=O)CCc1ccccc1)CC[C@H]2OC lies strictly below 20%
criterion met

Confirm or reject: INHIBITION of CCS(=O)(=O)N1CCC(n2nc(-c3cc(C)oc3C)ccc2=O)CC1 lies strictly below 20%
criterion not met

Confirm or reject: INHIBITION of COc1ccccc1OC1CN(C(=O)c2ccccc2C(C)=O)C1 lies strictly below 20%
criterion not met

Confirm or reject: INHIBITION of N#Cc1cccnc1OC1CCN(S(=O)(=O)c2ccc(F)c(Cl)c2)CC1 lies strictly below 20%
criterion not met

Confirm or reject: INHIBITION of COCCC(Cc1cccc(Br)c1)C(=O)N(C)C (configuration not stated) lies strictly below 20%
criterion met

Confirm or reject: INHIBITION of O=C1C[C@H]2[C@H](CCN2C(=O)c2cc[nH]n2)N1Cc1cccnc1 lies strictly below 20%
criterion not met

Confirm or reject: INHIBITION of CC(C)c1nc2c(n1C)CCN(CCCOc1ccc(C#N)cc1)C2 lies strictly below 20%
criterion met

Confirm or reject: INHIBITION of O=C(CC(F)(F)F)N1C[C@H]2CC[C@@H](C1)N(Cc1ccccc1)C2=O lies strictly below 20%
criterion not met

Confirm or reject: INHIBITION of O=C1NCCN1C1CCN(CCOc2ccccc2Cl)CC1 lies strictly below 20%
criterion not met

Confirm or reject: INHIBITION of O=S(=O)(c1ccccc1F)N1CCC(Oc2cccnn2)CC1 lies strictly below 20%
criterion not met

Confirm or reject: INHIBITION of Cc1nc(N2CCCC2)nc2c1CCN(C(=O)CC1CCCC1)CC2 lies strictly below 20%
criterion met

Confirm or reject: INHIBITION of CC(C(=O)N1CCCC1)N1CCN(c2ncc(Cl)cn2)CC1 (configuration not stated) lies strictly below 20%
criterion met

Confirm or reject: INHIBITION of Cc1nc(N2CCN(C)CC2)ncc1C(=O)N1CCCCC1 lies strictly below 20%
criterion not met

Confirm or reject: INHIBITION of CC(C)(C)CCN1CCC(c2nnc(Cn3cccn3)n2C2CC2)CC1 lies strictly below 20%
criterion not met

Confirm or reject: INHIBITION of O=C(c1ccnc(CC2COc3ccccc3C2)c1)N1CCCC1 (configuration not stated) lies strictly below 20%
criterion not met

Confirm or reject: INHIBITION of O=C1COC2(CCN(Cc3cccnc3)CC2)CN1c1ccccc1 lies strictly below 20%
criterion not met

Confirm or reject: INHIBITION of N#Cc1cccnc1OC1CCN(S(=O)(=O)c2ccc(Br)cc2)CC1 lies strictly below 20%
criterion not met

Confirm or reject: INHIBITION of Cc1cc(NC(=O)NCC2COc3ccccc3C2)no1 (configuration not stated) lies strictly below 20%
criterion not met

Confirm or reject: INHIBITION of Cc1cnc(CC2COCCN(C(=O)c3cncs3)C2)cn1 (configuration not stated) lies strictly below 20%
criterion not met

Confirm or reject: INHIBITION of Nc1ccc(CC2COc3ccccc3C2)cn1 (configuration not stated) lies strictly below 20%
criterion not met

Confirm or reject: INHIBITION of CCCS(=O)(=O)N1CCC(n2nc(-c3cc(C)oc3C)ccc2=O)CC1 lies strictly below 20%
criterion not met

Confirm or reject: INHIBITION of COC(=O)c1sccc1S(=O)(=O)N1CCC(Oc2ncccc2Cl)CC1 lies strictly below 20%
criterion not met

Confirm or reject: INHIBITION of COc1ccccc1OC1CCN(C(=O)c2cccc(O)c2C)CC1 lies strictly below 20%
criterion met

Confirm or reject: INHIBITION of Cc1cc(-c2ccc(=O)n(C3CCN(S(C)(=O)=O)CC3)n2)c(C)o1 lies strictly below 20%
criterion met

Confirm or reject: INHIBITION of Cc1nc(N2CCN(C)CC2)ncc1C(=O)N1CCCCCC1 lies strictly below 20%
criterion not met

Confirm or reject: INHIBITION of Nc1cc(CC2COc3ccccc3C2)ccn1 (configuration not stated) lies strictly below 20%
criterion not met

Confirm or reject: INHIBITION of C[C@H](NC(=O)C1CC1)c1nc2cc(-c3ccc(F)cc3)ncn2n1 lies strictly below 20%
criterion not met

Confirm or reject: INHIBITION of c1ccc2c(OCCN3CCn4c(nnc4C4CC4)C3)cccc2c1 lies strictly below 20%
criterion not met

Confirm or reject: INHIBITION of O=C(c1ccc[nH]1)N1CCc2nnc(Cn3cccn3)n2CC1 lies strictly below 20%
criterion not met

Confirm or reject: INHIBITION of COC(=O)c1ccc(S(=O)(=O)N2CCC(Oc3cccnn3)CC2)cc1 lies strictly below 20%
criterion not met

Confirm or reject: INHIBITION of O=S(=O)(NCC1COc2ccccc2C1)N1CCCCCC1 (configuration not stated) lies strictly below 20%
criterion met

Confirm or reject: INHIBITION of COc1ccccc1OC1CN(C(=O)c2c(C)nc3ccc(C)cn23)C1 lies strictly below 20%
criterion not met

Confirm or reject: INHIBITION of COc1ccc(C(C)NC(=O)N2CCNC(=O)CC2)cc1F (configuration not stated) lies strictly below 20%
criterion not met

Confirm or reject: INHIBITION of Cn1nc(CNC(=O)CC#N)c2c1CN(CC1CC1)CC2 lies strictly below 20%
criterion met

Confirm or reject: INHIBITION of O=C(NC[C@H]1OC[C@@H](NC2CCNCC2)[C@@H]1O)C1CCCC1 lies strictly below 20%
criterion not met

Confirm or reject: INHIBITION of Cc1nn(C)c(Cl)c1C1CCCN1Cc1ccc(C(N)=O)cc1 (configuration not stated) lies strictly below 20%
criterion met

Confirm or reject: INHIBITION of O=S(=O)(c1cc(F)cc(F)c1)N1CCC(Oc2ccc(Cl)cn2)CC1 lies strictly below 20%
criterion not met

Confirm or reject: INHIBITION of COc1ccccc1OC1CN(C(=O)c2ccc(C(C)=O)s2)C1 lies strictly below 20%
criterion met

Confirm or reject: INHIBITION of Cc1ccc(CN2CCOC3(CCCN(C(=O)c4ccco4)C3)C2)s1 (configuration not stated) lies strictly below 20%
criterion not met

Confirm or reject: INHIBITION of Cc1cccc(CN2C[C@@H]3CN(C(=O)c4ccsc4)C[C@@H]3C2=O)n1 lies strictly below 20%
criterion not met

Confirm or reject: INHIBITION of COC(=O)c1ccc(N2CCN(CCS(C)(=O)=O)C(C)C2)cc1 (configuration not stated) lies strictly below 20%
criterion met

Confirm or reject: INHIBITION of COc1ccc(C2Nc3ccccc3N=C3CNC(=O)C32)cc1OC (configuration not stated) lies strictly below 20%
criterion met

Confirm or reject: INHIBITION of O=C1NCCN1C1CCN(CCOc2ccccc2F)CC1 lies strictly below 20%
criterion not met

Confirm or reject: INHIBITION of Cc1nc(C)c(C(=O)NCc2nc3cccc(C)c3n2C)o1 lies strictly below 20%
criterion not met

Confirm or reject: INHIBITION of CCn1c(CNC(=O)Nc2nc(C)c(C)o2)nc2ccccc21 lies strictly below 20%
criterion not met

Confirm or reject: INHIBITION of N#Cc1cccnc1OC1CCNCC1 lies strictly below 20%
criterion met

Confirm or reject: INHIBITION of Cc1ccc(C(C)NC(=O)N2CCNC(=O)CC2)cc1F (configuration not stated) lies strictly below 20%
criterion not met
